Assay: Bioavailability study: pharmacokinetics after single intravenous or oral dose in mouse
Assay type: in vivo
Conditions: male, CD-1, mouse, plasma, po, 1 mg/kg, PO 1 mg/kg, individual animal
Description: Studies were conducted to evaluate the pharmacokinetic profiles of Example 25 herein and Example 2 in WO 2019/040550 after single intravenous or oral dose in mouse. CD-1 mice (male) were obtained from Charles River Laboratories (Wilmington, MA). The pharmacokinetics of Example 25 herein and Example 2 in WO 2019/040550 were evaluated following single 1 mg/kg intravenous or oral doses in mouse. […]
measured_quantity: AUC (µg·h/mL)
Please state the figure in µg·h/mL; there is no need to write the unit.

# AUC (compound: CO[C@@H]1CC[C@@H](CNc2ccc(S(=O)(=O)NC(=O)c3ccc(N4CCN5CC6=C(c7ccc(Cl)cc7)CC(C)(C)C[C@H]6OCCCOC[C@@H]5C4)cc3N3CCCOc4nc5[nH]ccc5cc43)cc2[N+](=O)[O-])OC1 [Example 25] ) is 3.58

Where do the numbers come from? From patent US11964990B2.
